# Tested on: CEM cells HIV-1 protection, formazan growth assay
# measurement.notes: NCI AIDS Antiviral Assay;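 active = compounds giving half or more protection of infected cells from virus-caused growth loss, again on retest; inactive = the rest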
Possible outcomes: 1 (active), 0 (inactive)

>>> class_label("Nc1nc(=S)[nH]c(N)c1N=O")
1
>>> class_label("C[C@]12CCc3nonc3C1CC[C@@H]1C2CC[C@@]2(C)C1CC[C@@H]2O (some centres undefined)")
0
>>> class_label("CCOC(=O)c1csc(-c2nc(CCNC(=O)c3ccccc3)sc2Cl)n1")
0
>>> class_label("Cn1cc2ccccc2c1-c1nc(N)nc(F)n1")
0
>>> class_label("Brc1ccc(N=c2nc3ccccn3n3nc(-c4ccccc4)cc23)cc1")
0
>>> class_label("COc1ccc(C2=NNC(=O)CC2)cc1OC")
0
>>> class_label("CCOC(=O)C(=Cn1c(=S)[nH]c2cc(C)ccc21)C(=O)OCC")
0
>>> class_label("Cc1cc2nc(NS(=O)(=O)c3cc(C)c(Cl)cc3S)[nH]c2cc1C")
0
>>> class_label("COCO[C@@H]1C[C@H]2C(=O)N(COC)c3ccccc3C(=O)N2C1")
0
>>> class_label("CCOC(=O)c1c(NC(=O)c2cccs2)sc2c1CCC2")
0
>>> class_label("c1ccc(-c2ccccn2)nc1")
0
>>> class_label("COc1ccc2c(c1)CC1Cc3ccccc3CCN1C2 (centres undefined)")
0
>>> class_label("CCOC(=O)c1ccc(N2N=NC3C4CC(C5CCCC54)C32)cc1 (centres undefined)")
0
>>> class_label("CC(=O)NC(NNC(NC(C)=O)(c1ccccc1)c1ccccc1)(c1ccccc1)c1ccccc1")
0
>>> class_label("COc1c(OC(C)=O)cc2c(OC(C)=O)c1CC(C)CC(OC)C(O)C(C)/C=C(\\C)C(OC(N)=O)C(OC)/C=C\\C=C(/C)C(=O)N2 (centres undefined)")
0
>>> class_label("CCc1n[nH]c(=O)n1N1C(=O)C2CCCCC2C1=O (centres undefined)")
0
>>> class_label("COc1cc(Nc2nc3cc(C(F)(F)F)ccc3nc2-c2ccccc2)cc(OC)c1OC")
0
>>> class_label("Nc1nc(Cl)cc(OCC2(O)CC(COC(=O)c3ccccc3)C2)n1 (centres undefined)")
0
>>> class_label("C/C=C(/C)C(=O)O[C@H]1C[C@@H]2[C@@H](O)c3occ(C)c3C[C@]2(C)[C@@H](C)C1")
0
>>> class_label("O=C(NS(=O)(=O)Nc1ccccc1)OCC1CCCCC1")
0
>>> class_label("O=C1CCCCCCCCCCOC(=O)CCCCCCCCCCO1")
0
>>> class_label("CNc1ccc(N=O)cc1")
0
>>> class_label("CCOC(=O)C1(CO)CSCCSC1")
0
>>> class_label("CC[C@@]1(O)C(=O)OCc2c1cc1n(c2=O)Cc2cc3cc(OC)ccc3nc2-1")
0
>>> class_label("Cc1c(C(=O)CC(=O)C(=O)Nc2cc(Cl)ccc2Cl)[n+](=O)c2ccccc2n1[O-]")
0
>>> class_label("CC(=O)OC(C)C(=O)C1c2cccc(O)c2C(=O)c2c(O)cc(C)cc21 (centres undefined)")
0
>>> class_label("CCc1cc2c(c3c1CCCC3)CC1(Cc3ccc(C(=O)OC)cc3C1)C2 (centres undefined)")
0
>>> class_label("COc1ccc(C2OC(=O)c3cc[nH]c(=O)c32)cc1 (centres undefined)")
0
>>> class_label("CN(C)CC/C=C1\\c2ccccc2CN(C)c2ccccc21")
0
>>> class_label("COC(=O)/C(C#N)=C(\\N)c1c(C)c2ccccc2oc1=N")
0
>>> class_label("Cc1cc(-c2cscn2)c(O)c([N+](=O)[O-])c1")
0
>>> class_label("CCOC(=O)CNC(=O)N(CC)C12CC3CC(CC(C3)C1)C2")
0
>>> class_label("COc1ccc(/C=C2\\N=C(c3ccccc3)N(N=C3NC(=O)CC(=O)N3)C2=O)cc1")
0
>>> class_label("Cn1c2ccccc2[n+]2c(N)scc12")
0
>>> class_label("O=C1NC(O)c2cc3ccccc3cc2O1 (centres undefined)")
0
>>> class_label("CC(C)(C)[Si](C)(C)OC[C@H]1O[C@@H](n2ccc(=O)[nH]c2=O)C(O[Si](C)(C)C(C)(C)C)[C@]12CCN(O)CO2 (some centres undefined)")
0
>>> class_label("O=[N+]([O-])c1ccc2nc(-c3ccccc3[N+](=O)[O-])[nH]c2c1")
0
>>> class_label("COc1ccc(-c2c(C3=NCCCN3)nnn2-c2ccc(Cl)cc2)cc1")
0
>>> class_label("CC(CN(C)C)OC(=O)c1cc2ccccc2n1Cc1ccccc1 (centres undefined)")
0
